Target: corticotropin releasing factor 1 receptor
Test: cell-based or functional assay
Ends that are not written are not given here.
property: CRF1R EC50

Below are worked cases with known answers.
ZGPPISIDLPIGLLRKMIEIEKQEKEKQQAANNRLLLDTI (C-terminal amide) [SEQ ID NO 75] | > 100 nM
IVLSLDVPIGLLQILLEMARAEQLAQQAHSNRKLMEII-NH2 [SEQ ID NO 164] | > 100 nM

Below: the item to evaluate.
### Prompt Bench note: what CRF1R EC50 did ZGPPISIDLPTHLLRKMIEIEKQEKEKQQAANNRLLLDTI (C-terminal amide) [SEQ ID NO 74] show?
### Response > 100 nM

Origin of values: patent US20030148958A1
